Data credit: patent US20200246316A1

assay.notes: Rat 28-day GLP repeat dose PO study (toxicokinetics)
Assay type: in vivo
experimental.parameters: male, rat, in vivo, po, 500 mg/kg, Day 14, M, 500 mg/kg PO; read-out: CL/F (CLss/F) (converted)
Counter-ions that a name gives are not always drawn.
reported.endpoint: CL/F
The answer consists of two parts: a number and, after it, its unit.

Prompt line: Look up CL/F for this molecule: CC1(C)SC(Nc2ccccc2O)=N[C@@H]1C(=O)O [Compound 1, mono-hydrochloride]
Response line: 34.2 mL/min/kg

----------
assay.notes: Dog 7-day repeat dose PO study
Type: in vivo
experimental.parameters: male, plasma, 200 mg/kg, Day 7, 200 mg/kg PO, M, N = 1
Where a name gives a salt, the structure may show the parent alone.
reported.endpoint: AUC(0-t) (µg·h/mL)
Value expressed in µg·h/mL; do not type the unit.

Prompt line: Look up AUC(0-t) for this molecule: CC1(C)SC(Nc2ccccc2O)=N[C@@H]1C(=O)O [Compound 1, mono-hydrochloride]
Response line: 540

----------
assay.notes: in vivo
experimental.parameters: male, Sprague Dawley, rat, po, 100 mg/kg, Compound 1 Concentration in rat plasma, 100 mg/kg single PO, 0.5 h post-dose, individual animals
Structures can show the parent of a compound that is named as a salt.
reported.endpoint: concentration at 0.5 h (ng/mL)
Value expressed in ng/mL; do not type the unit.

Prompt line: Look up concentration at 0.5 h for this compound: CC1(C)SC(Nc2ccccc2O)=N[C@@H]1C(=O)O [Compound 1, mono-hydrochloride]
Response line: 13800

----------
assay.notes: Rat 28-day GLP repeat dose PO study (toxicokinetics)
Format: in vivo
experimental.parameters: male, rat, in vivo, po, 500 mg/kg, Day 1, M, 500 mg/kg PO; read-out: CL/F (CLz/F) (converted)
Counter-ions that a name gives are not always drawn.
reported.endpoint: CL/F

Prompt line: Look up CL/F for this molecule: CC1(C)SC(Nc2ccccc2O)=N[C@@H]1C(=O)O [Compound 1, mono-hydrochloride]
Response line: 30.3 mL/min/kg

----------
assay.notes: Rat 28-day GLP repeat dose PO study (toxicokinetics)
Format: in vivo
experimental.parameters: both sexes, rat, in vivo, po, Days 14 and 28, all dose levels and sexes; read-out: overall median tmax
Structures can show the parent of a compound that is named as a salt.
reported.endpoint: Tmax (h)
Value expressed in h; do not type the unit.

Prompt line: Look up Tmax for this compound: CC1(C)SC(Nc2ccccc2O)=N[C@@H]1C(=O)O [Compound 1, mono-hydrochloride]
Response line: 1

----------
assay.notes: Dog single oral dose MTD study
Assay type: in vivo
experimental.parameters: female, dog, plasma; 500 mg/kg PO (Dose 2; Day 4), 0.5 h, F, N = 2; read-out: Average Compound 1 Concentration in dog plasma
Where a name gives a salt, the structure may show the parent alone.
reported.endpoint: concentration at 0.5 h (µg/mL)
Value expressed in µg/mL; do not type the unit.

Prompt line: Look up concentration at 0.5 h for this compound: CC1(C)SC(Nc2ccccc2O)=N[C@@H]1C(=O)O [Compound 1, mono-hydrochloride]
Response line: 87

----------
assay.notes: Dog 7-day repeat dose PO study
Format: in vivo
experimental.parameters: female, plasma, 200 mg/kg, Day 1, 200 mg/kg PO, F, N = 1
Structures can show the parent of a compound that is named as a salt.
reported.endpoint: half-life (h)
Value expressed in h; do not type the unit.

Prompt line: Look up half-life for this molecule: CC1(C)SC(Nc2ccccc2O)=N[C@@H]1C(=O)O [Compound 1, mono-hydrochloride]
Response line: 1.3

----------
assay.notes: Rat 7-day repeat dose PO study (toxicokinetics, MTD)
Assay type: in vivo
experimental.parameters: both sexes, Sprague-Dawley (Hsd:SD), rat, in vivo, 2000 mg/kg; oral gavage 7 days
Description: The vehicle was 0.5% HPMC. Toxicokinetic (TK) results were as follows:
Where a name gives a salt, the structure may show the parent alone.
reported.endpoint: MTD at 7 days (mg/kg)
Value expressed in mg/kg; do not type the unit.

Prompt line: Look up MTD at 7 days for this compound: CC1(C)SC(Nc2ccccc2O)=N[C@@H]1C(=O)O [Compound 1, mono-hydrochloride]
Response line: 2000

----------
assay.notes: Rat 28-day GLP repeat dose PO study (toxicokinetics)
Type: in vivo
experimental.parameters: female, rat, in vivo, po, 2000 mg/kg, Day 1, F, 2000 mg/kg PO
Where a name gives a salt, the structure may show the parent alone.
reported.endpoint: AUC (µg·h/mL)
Value expressed in µg·h/mL; do not type the unit.

Prompt line: Look up AUC for this compound: CC1(C)SC(Nc2ccccc2O)=N[C@@H]1C(=O)O [Compound 1, mono-hydrochloride]
Response line: 1160

----------
assay.notes: Rat 28-day GLP repeat dose PO study (toxicokinetics)
Type: in vivo
experimental.parameters: female, rat, in vivo, po, 500 mg/kg, Day 14, F, 500 mg/kg PO
Structures can show the parent of a compound that is named as a salt.
reported.endpoint: AUC (µg·h/mL)
Value expressed in µg·h/mL; do not type the unit.

Prompt line: Look up AUC for this compound: CC1(C)SC(Nc2ccccc2O)=N[C@@H]1C(=O)O [Compound 1, mono-hydrochloride]
Response line: 223

----------
assay.notes: Dog 7-day repeat dose PO study
Type: in vivo
experimental.parameters: male, plasma, 400 mg/kg, Day 7, 400 mg/kg PO, M, N = 1
Counter-ions that a name gives are not always drawn.
reported.endpoint: Cmax (µg/mL)
Value expressed in µg/mL; do not type the unit.

Prompt line: Look up Cmax for this compound: CC1(C)SC(Nc2ccccc2O)=N[C@@H]1C(=O)O [Compound 1, mono-hydrochloride]
Response line: 69

----------
assay.notes: Rat 28-day GLP repeat dose PO study (toxicokinetics)
Format: in vivo
experimental.parameters: male, rat, in vivo, po, 2000 mg/kg, Day 14, M, 2000 mg/kg PO; read-out: Cmax
Counter-ions that a name gives are not always drawn.
reported.endpoint: Cmax (µg/mL)
Value expressed in µg/mL; do not type the unit.

Prompt line: Look up Cmax for this molecule: CC1(C)SC(Nc2ccccc2O)=N[C@@H]1C(=O)O [Compound 1, mono-hydrochloride]
Response line: 75.6

----------
assay.notes: Rat 28-day GLP repeat dose PO study (toxicokinetics)
Assay type: in vivo
experimental.parameters: female, rat, in vivo, po, 1000 mg/kg, Day 28, F, 1000 mg/kg PO; read-out: Cmax
Structures can show the parent of a compound that is named as a salt.
reported.endpoint: Cmax (µg/mL)
Value expressed in µg/mL; do not type the unit.

Prompt line: Look up Cmax for this compound: CC1(C)SC(Nc2ccccc2O)=N[C@@H]1C(=O)O [Compound 1, mono-hydrochloride]
Response line: 128

----------
assay.notes: Rat 28-day GLP repeat dose PO study (toxicokinetics)
Type: in vivo
experimental.parameters: female, rat, in vivo, po, 500 mg/kg, Day 28, F, 500 mg/kg PO; read-out: CL/F (CLss/F) (converted)
Where a name gives a salt, the structure may show the parent alone.
reported.endpoint: CL/F (L/h/kg)
Value expressed in L/h/kg; do not type the unit.

Prompt line: Look up CL/F for this compound: CC1(C)SC(Nc2ccccc2O)=N[C@@H]1C(=O)O [Compound 1, mono-hydrochloride]
Response line: 1.68

----------
assay.notes: Rat 28-day GLP repeat dose PO study (toxicokinetics)
Format: in vivo
experimental.parameters: male, rat, in vivo, po, 1000 mg/kg, Day 28, M, 1000 mg/kg PO; read-out: V/F (Vss/F)
Where a name gives a salt, the structure may show the parent alone.
reported.endpoint: Vd/F (L/kg)
Value expressed in L/kg; do not type the unit.

Prompt line: Look up Vd/F for this compound: CC1(C)SC(Nc2ccccc2O)=N[C@@H]1C(=O)O [Compound 1, mono-hydrochloride]
Response line: 14.3

----------
assay.notes: Rat 28-day GLP repeat dose PO study (toxicokinetics)
Type: in vivo
experimental.parameters: male, rat, in vivo, po, 1000 mg/kg, Day 1, M, 1000 mg/kg PO; read-out: V/F (Vz/F)
Structures can show the parent of a compound that is named as a salt.
reported.endpoint: Vd/F

Prompt line: Look up Vd/F for this molecule: CC1(C)SC(Nc2ccccc2O)=N[C@@H]1C(=O)O [Compound 1, mono-hydrochloride]
Response line: 10.9 L/kg

----------
assay.notes: Dog 7-day repeat dose PO study
Type: in vivo
experimental.parameters: female, plasma, 400 mg/kg, Day 1, 400 mg/kg PO, F, N = 1
Where a name gives a salt, the structure may show the parent alone.
reported.endpoint: Tmax (h)
Value expressed in h; do not type the unit.

Prompt line: Look up Tmax for this compound: CC1(C)SC(Nc2ccccc2O)=N[C@@H]1C(=O)O [Compound 1, mono-hydrochloride]
Response line: 1

----------
assay.notes: Dog 7-day repeat dose PO study
Type: in vivo
experimental.parameters: female, plasma, 350 mg/kg, Day 7, 350 mg/kg PO, F, N = 1
Structures can show the parent of a compound that is named as a salt.
reported.endpoint: half-life
The answer consists of two parts: a number and, after it, its unit.

Prompt line: Look up half-life for this compound: CC1(C)SC(Nc2ccccc2O)=N[C@@H]1C(=O)O [Compound 1, mono-hydrochloride]
Response line: 2.4 h
